Reported viability, T/C values for the following compounds.
Test system: 327498-153-R-J2-PDC multicell spheroid viability
run_description: Anticancer human tumor 327498-153-R-J2-PDC patient-derived uterine carcinosarcoma cell line growth inhibition [IpAb]
condition_summary: second compound 1 µM; first compound 0.1 µM; stronger effect = lower value
Give just the number in %; leave the unit off.

- compound: "CCCS(=O)(=O)Nc1ccc(F)c(C(=O)c2c[nH]c3ncc(-c4ccc(Cl)cc4)cc23)c1F + CC(C)NCC(C(=O)N1CCN(c2ncnc3c2C(C)CC3O)CC1)c1ccc(Cl)cc1"
  viability, T/C (%): 58.2
- compound: "Cn1ncnc1[C@H]1c2n[nH]c(=O)c3cc(F)cc(c23)N[C@@H]1c1ccc(F)cc1 + CCN1CCN(Cc2ccc(Nc3ncc(F)c(-c4cc(F)c5nc(C)n(C(C)C)c5c4)n3)nc2)CC1"
  viability, T/C (%): 31.6
- compound: "C=CCn1c(=O)c2cnc(Nc3ccc(N4CCN(C)CC4)cc3)nc2n1-c1cccc(C(C)(C)O)n1 + CC(C)NCC(C(=O)N1CCN(c2ncnc3c2C(C)CC3O)CC1)c1ccc(Cl)cc1"
  viability, T/C (%): 50.5

Documented viability, T/C of Cc1nc(NC(=O)N2CCCC2C(N)=O)sc1-c1ccnc(C(C)(C)C(F)(F)F)c1 (stereo not given) + CCN1CCN(Cc2ccc(Nc3ncc(F)c(-c4cc(F)c5nc(C)n(C(C)C)c5c4)n3)nc2)CC1 : 55.7

// viability, T/C value for CC1(C)CCC(CN2CCN(c3ccc(C(=O)NS(=O)(=O)c4ccc(NCC5CCOCC5)c([N+](=O)[O-])c4)c(Oc4cnc5[nH]ccc5c4)c3)CC2)=C(c2ccc(Cl)cc2)C1 + CCN1CCN(Cc2ccc(Nc3ncc(F)c(-c4cc(F)c5nc(C)n(C(C)C)c5c4)n3)nc2)CC1 : 60.7

get_value(item= Cn1ncc(Cl)c1-c1cc(C(=O)NC(CN)Cc2cccc(F)c2)sc1Cl (stereo not given) + CC(C)NCC(C(=O)N1CCN(c2ncnc3c2C(C)CC3O)CC1)c1ccc(Cl)cc1 , readout=viability, T/C) returns 55.8

====

Tested on: 327498-153-R-J2-PDC multicell spheroid viability
run_description: Anticancer human tumor 327498-153-R-J2-PDC cell line growth inhibition [IpAb];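 further: spheroids exposed to agents for 7 days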
condition_summary: curve of first compound; second compound 0.316 µM
Each entry below carries its reported IC50.

- molecule: "C=CC(=O)N1CCN(c2nc(=O)n(-c3c(C)ccnc3C(C)C)c3nc(-c4c(O)cccc4F)c(F)cc23)C(C)C1 (stereo not drawn) + CCN1CCN(Cc2ccc(Nc3ncc(F)c(-c4cc(F)c5nc(C)n(C(C)C)c5c4)n3)nc2)CC1"
  IC50: "< 31.6 nM"
- molecule: "Cn1cnc2c(F)c(Nc3ccc(Br)cc3Cl)c(C(=O)NOCCO)cc21 + CCN1CCN(Cc2ccc(Nc3ncc(F)c(-c4cc(F)c5nc(C)n(C(C)C)c5c4)n3)nc2)CC1"
  IC50: "< 9.49 nM"

Okay, now this molecule:
Documented IC50 of CCCS(=O)(=O)Nc1ccc(F)c(C(=O)c2c[nH]c3ncc(-c4ccc(Cl)cc4)cc23)c1F + CC(C)NCC(C(=O)N1CCN(c2ncnc3c2C(C)CC3O)CC1)c1ccc(Cl)cc1 : > 10000 nM

====

Test system: 327498-153-R-J2-PDC multicell spheroid viability
run_description: Anticancer human tumor 327498-153-R-J2-PDC cell line growth inhibition [IpAb];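 further: spheroids exposed to agents for 7 days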;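 on viability, T/C: 100% = DMSO vehicle control viability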
condition_summary: second compound 0.316 µM; first compound 0.00949 µM; stronger effect = lower value
The following compounds are shown together with reported viability, T/C values.
Hi! Could you send only the number? It should be in %, unit omitted.

A selection of reference data follows.
- compound: "CC(C)(C)c1cnc(CSc2cnc(NC(=O)C3CCNCC3)s2)o1 + CCN1CCN(Cc2ccc(Nc3ncc(F)c(-c4cc(F)c5nc(C)n(C(C)C)c5c4)n3)nc2)CC1"
  target_system: "327498-153-R-J2-PDC multicell spheroid viability"
  unit_abbrev: "%"
  viability, T/C: 51.6
- compound: "CC(=O)c1c(C)c2cnc(Nc3ccc(N4CCNCC4)cn3)nc2n(C2CCCC2)c1=O + CCN1CCN(Cc2ccc(Nc3ncc(F)c(-c4cc(F)c5nc(C)n(C(C)C)c5c4)n3)nc2)CC1"
  target_system: "327498-153-R-J2-PDC multicell spheroid viability"
  unit_abbrev: "%"
  viability, T/C: 62
- compound: "CC(=O)c1c(C)c2cnc(Nc3ccc(N4CCNCC4)cn3)nc2n(C2CCCC2)c1=O + CC(C)NCC(C(=O)N1CCN(c2ncnc3c2C(C)CC3O)CC1)c1ccc(Cl)cc1"
  target_system: "327498-153-R-J2-PDC multicell spheroid viability"
  unit_abbrev: "%"
  viability, T/C: 68.2
- compound: "CC(C)(C)c1cnc(CSc2cnc(NC(=O)C3CCNCC3)s2)o1 + CC(C)NCC(C(=O)N1CCN(c2ncnc3c2C(C)CC3O)CC1)c1ccc(Cl)cc1"
  target_system: "327498-153-R-J2-PDC multicell spheroid viability"
  unit_abbrev: "%"
  viability, T/C: 80.3
- compound: "Cn1cnc2c(F)c(Nc3ccc(Br)cc3Cl)c(C(=O)NOCCO)cc21 + CC(C)NCC(C(=O)N1CCN(c2ncnc3c2C(C)CC3O)CC1)c1ccc(Cl)cc1"
  target_system: "327498-153-R-J2-PDC multicell spheroid viability"
  unit_abbrev: "%"
  viability, T/C: 60.2

Lookup result for Cn1cnc2c(F)c(Nc3ccc(Br)cc3Cl)c(C(=O)NOCCO)cc21 + CCN1CCN(Cc2ccc(Nc3ncc(F)c(-c4cc(F)c5nc(C)n(C(C)C)c5c4)n3)nc2)CC1 ; measured viability, T/C: 42.9
